tested on: Fer (mouse); assay: phosphorylation enrichment, bacterial display (enrichment ratio); higher = better substrate or ligand; peptides without Tyr show the background
Field: class. Source value: phosphorylation enrichment. Ranges: range A (below 0.4), range B (0.4 to below 0.6), range C (0.6 or more)

- SILAVYSKDNY [PANK2_Y400]: range B
- QNTGNYYDLYG [PTPN11_Y62_D61N]: range C

Class? Entry: SVVVPYEPPGV [TP53_Y220_E224G]
range B

Class? Entry: NGEDPYAGSTD [XRCC1_Y515]
range B

Class? Entry: RPSRQYATLDV [SCAMP3_Y35]
range A

Class? Entry: KTDVRYRSLGG [DYSF_Y1858_H1857R]
range B

Class? Entry: RRNEIYEIKVD [LGR5_Y387_H383R]
range C

Class? Entry: ADCRFYTFPQM [GAMT_Y223_A224T_YF]
range C

Class? Entry: SNNYIYKTLGV [FAM83B_Y639]
range A

Class? Entry: RASQEYHIVKK [PDZD2_Y557_S552R]
range B

Class? Entry: NSRYTCKLEVK [USH2A_Y3747_Y3747C]
range B

Class? Entry: YVFSFYHAFSG [ACTN4_Y265_S262F]
range C

====

target: SHP2-C SH2; assay: SH2 binding enrichment of the phosphorylated peptide, bacterial display (enrichment ratio); higher = better substrate or ligand; peptides without Tyr show the background;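 further: peptide library displayed on the E. coli surface as eCPX fusions, selected cells deep-sequenced, score is each peptide's frequency after selection divided by its frequency in the input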
Attribute: SH2 binding enrichment
Enter a number only.

What measured SH2 binding enrichment is associated with NTDETYSIDNE [TUBB2B_Y200_C201S] on SHP2-C SH2?
0.547

What measured SH2 binding enrichment is associated with WEQELYSQLVY [WAS_Y102] on SHP2-C SH2?
0.589

What measured SH2 binding enrichment is associated with MPAVTYTPAMR [MEGF10_Y895] on SHP2-C SH2?
0.825

What measured SH2 binding enrichment is associated with GLRSFYETSKM [MAGED2_Y449_YF] on SHP2-C SH2?
0.771

====

test system: AncSZ; experiment: phosphorylation enrichment, bacterial display (enrichment ratio); higher = better substrate or ligand; peptides without Tyr show the background
Field: class. Source value: phosphorylation enrichment. Ranges: lower (below 0.8), middle (0.8 to below 1), upper (1 or more)

• AFLGEYIPTVF [RAC2_Y32_P29L] = upper
• RIPFRYPKEFQ [IDS_Y234_H229R] = middle
• CSHMFYGKQCC [ADAMTS16_Y1211_K1209M] = middle
• NVGGKYSYLKV [GRM3_Y478] = lower

Class? Entry: GMKIVYVFVKK [DNAI2_Y5_E2K_YF]
upper

Class? Entry: RMLRKYQELMS [KRT74_Y425_E424K]
lower

Class? Entry: MCDKEYFSVHN [MET_Y1234_Y1230C_YF]
upper

Class? Entry: MFQVQYNSSVD [LRFN1_Y458_YF]
middle

Class? Entry: MWGSDYVQLSR [MAP3K4_Y582]
upper

Class? Entry: FDDIACIRKTL [PIK3CA_Y1021_Y1021C]
middle

Class? Entry: VRTSKYRGGGG [HBA1_Y141_L137R]
lower

Class? Entry: PDNEPYIFKVF [PIK3AP1_Y553]
upper

====

target: Fyn (UniProt P06241); test: phosphorylation enrichment, bacterial display (enrichment ratio); higher = better substrate or ligand; peptides without Tyr show the background
Sequence (P06241 whole entry, looked up): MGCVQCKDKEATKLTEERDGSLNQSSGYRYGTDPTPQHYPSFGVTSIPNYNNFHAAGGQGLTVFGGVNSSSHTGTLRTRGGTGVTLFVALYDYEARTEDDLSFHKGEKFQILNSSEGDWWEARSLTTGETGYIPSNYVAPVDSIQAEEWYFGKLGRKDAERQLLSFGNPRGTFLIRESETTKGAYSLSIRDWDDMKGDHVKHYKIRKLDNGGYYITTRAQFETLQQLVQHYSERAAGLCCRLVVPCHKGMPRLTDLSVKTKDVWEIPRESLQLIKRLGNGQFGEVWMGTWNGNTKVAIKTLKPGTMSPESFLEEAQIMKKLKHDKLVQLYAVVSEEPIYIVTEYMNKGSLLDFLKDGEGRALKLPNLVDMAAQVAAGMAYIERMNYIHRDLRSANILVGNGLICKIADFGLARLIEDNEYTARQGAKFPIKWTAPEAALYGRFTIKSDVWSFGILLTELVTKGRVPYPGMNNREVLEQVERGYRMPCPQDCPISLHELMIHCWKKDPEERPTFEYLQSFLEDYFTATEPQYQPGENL
Attribute: phosphorylation enrichment
Enter a number only.

- LRIAVYHEILI [CREBBP_Y1450_T1447I]: 3.37
- SVFNNYIQTLG [CTNND1_Y174_S171F]: 0.442
- IHSGIYYKPES [L2HGDH_Y102]: 6
- GEVLVYAEDPA [FLNA_Y319_V320A]: 0.593
- PESTLYRKFTT [NTRK1_Y701_I699T]: 0.347

Now consider a different sequence.
Any idea what its phosphorylation enrichment is? The sequence is VDEVLYEDSSA [MTHFS_Y197_T202A]
0.502

====

molecular target: FGFR1 (UniProt P11362); assay: phosphorylation enrichment, bacterial display (enrichment ratio); higher = better substrate or ligand; peptides without Tyr show the background
Sequence (P11362 whole entry, looked up): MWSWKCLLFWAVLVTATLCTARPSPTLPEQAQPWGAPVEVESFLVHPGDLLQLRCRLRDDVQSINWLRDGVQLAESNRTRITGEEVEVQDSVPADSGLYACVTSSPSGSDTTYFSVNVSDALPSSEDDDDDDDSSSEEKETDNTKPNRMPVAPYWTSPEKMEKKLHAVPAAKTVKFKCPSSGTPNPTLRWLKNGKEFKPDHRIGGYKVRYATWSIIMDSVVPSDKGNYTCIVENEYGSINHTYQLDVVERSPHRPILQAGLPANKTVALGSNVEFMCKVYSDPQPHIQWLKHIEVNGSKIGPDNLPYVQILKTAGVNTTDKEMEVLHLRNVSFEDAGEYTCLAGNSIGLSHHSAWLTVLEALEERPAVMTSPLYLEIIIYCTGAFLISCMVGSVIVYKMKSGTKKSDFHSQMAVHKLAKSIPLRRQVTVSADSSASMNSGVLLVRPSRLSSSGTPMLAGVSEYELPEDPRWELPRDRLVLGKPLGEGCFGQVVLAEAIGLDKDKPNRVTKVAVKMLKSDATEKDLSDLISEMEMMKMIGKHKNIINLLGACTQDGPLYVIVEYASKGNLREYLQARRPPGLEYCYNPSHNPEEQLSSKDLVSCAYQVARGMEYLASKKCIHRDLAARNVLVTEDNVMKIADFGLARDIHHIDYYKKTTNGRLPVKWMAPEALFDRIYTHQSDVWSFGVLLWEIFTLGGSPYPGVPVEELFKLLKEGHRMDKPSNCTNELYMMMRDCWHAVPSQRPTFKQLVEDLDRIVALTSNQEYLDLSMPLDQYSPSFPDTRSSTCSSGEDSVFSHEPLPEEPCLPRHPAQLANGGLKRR
Label true (1) when phosphorylation enrichment is at or above 0.6; otherwise label false (0).

Solved entries:
* RVGNMYVRGLS [ABCG8_Y209] | false (0)
* WQLEIYRASRP [ERCC4_Y594_R589W] | false (0)
* FAKSVYWENTL [NUP107_Y296_YF] | false (0)

I'd appreciate it if you could say whether LESTLYESSVV [TRPV4_Y91] has phosphorylation enrichment at least equal to 0.6.
true (1)

I'd appreciate it if you could say whether HGDSAYHSQRH [ERBB3_Y1132_R1127H] has phosphorylation enrichment at least equal to 0.6.
true (1)

I'd appreciate it if you could say whether VECRVYAEDPF [PCCA_Y401_YF] has phosphorylation enrichment at least equal to 0.6.
false (0)

I'd appreciate it if you could say whether PPEFSYGLQTQ [SRA1_Y35_Q32E] has phosphorylation enrichment at least equal to 0.6.
false (0)

I'd appreciate it if you could say whether RNAAEYLLSSG [ABL1_Y139] has phosphorylation enrichment at least equal to 0.6.
false (0)

I'd appreciate it if you could say whether YAFQLYDLDRD [CHP2_Y123] has phosphorylation enrichment at least equal to 0.6.
true (1)

I'd appreciate it if you could say whether PADCRYYAFPQ [GAMT_Y222] has phosphorylation enrichment at least equal to 0.6.
true (1)

I'd appreciate it if you could say whether VVRSLYEDLED [VHL_Y185_I180V] has phosphorylation enrichment at least equal to 0.6.
false (0)

I'd appreciate it if you could say whether NPETCYQKLKK [TK2_Y190_R192K] has phosphorylation enrichment at least equal to 0.6.
false (0)

I'd appreciate it if you could say whether RASDFYSQQMA [GBP6_Y334_A331S_YF] has phosphorylation enrichment at least equal to 0.6.
false (0)

====

system: c-Abl (mouse); test: phosphorylation enrichment, bacterial display (enrichment ratio); higher = better substrate or ligand; peptides without Tyr show the background
Label 1 when phosphorylation enrichment is at or above 0.9; otherwise label -1.

Solved entries:
- KTDVRYRSLGG [DYSF_Y1858_H1857R]: -1
- AGVDRYSLGTS [C5orf42_Y1451_P1446A]: -1
- ENFDDYMKDVG [FABP4_Y20_E23D]: 1
- HFGCVYYGTLL [MET_Y1093_H1094Y]: 1
- SNNFIYTTLGV [FAM83B_Y639_K640T_YF]: 1
- ARMTNYGLPRF [TSPAN12_Y138_YF]: -1

Could you now look at the following sequence, please?
I'd appreciate it if you could say whether CPEARYNRSPI [PTAR1_Y42] has phosphorylation enrichment at least equal to 0.9.
-1

====

tested on: Fer (mouse); test: phosphorylation enrichment, bacterial display (enrichment ratio); higher = better substrate or ligand; peptides without Tyr show the background
Label Y when phosphorylation enrichment is at or above 0.6; otherwise label N.

- PADCRYYAFPQ [GAMT_Y222]: Y
- KGNMYYENSYA [EGFR_Y113_R108K]: Y
- AKGMKYLASKK [MET_Y1194]: N
- FASTGYVIAIQ [GRIN2B_Y762_G763V]: N
- VFPIDYYFPPQ [AR_Y552_L548F]: N
- SDVWSYGVTMW [ZAP70_Y525]: Y

I'd appreciate it if you could say whether QRAADYYSQQM [GBP6_Y333] has phosphorylation enrichment at least equal to 0.6.
N

====

target: FGFR1 (UniProt P11362); experiment: phosphorylation enrichment, bacterial display (enrichment ratio); higher = better substrate or ligand; peptides without Tyr show the background
readout label: phosphorylation enrichment
Enter a number only.

What measured phosphorylation enrichment is associated with QSHKVYFQHLL [POR_Y604_V605F] on FGFR1 (UniProt P11362)?
0.622

What measured phosphorylation enrichment is associated with RNVLVYDKLNV [ROR2_Y624] on FGFR1 (UniProt P11362)?
0.614

What measured phosphorylation enrichment is associated with NSNSDYVDILP [SH2D1B_Y127_V130I] on FGFR1 (UniProt P11362)?
3.99

What measured phosphorylation enrichment is associated with KIPGRYFETGS [PAX2_Y72_L69P_YF] on FGFR1 (UniProt P11362)?
0.471

What measured phosphorylation enrichment is associated with LMQAEYWHDPI [PPT1_Y185_V181M] on FGFR1 (UniProt P11362)?
6.07

What measured phosphorylation enrichment is associated with SIKDKYVTAFY [KCNH2_Y611_L615F] on FGFR1 (UniProt P11362)?
0.483

What measured phosphorylation enrichment is associated with GLIPAYHWVIM [NMNAT1_Y64_R66W] on FGFR1 (UniProt P11362)?
8.56

What measured phosphorylation enrichment is associated with VFPIDYYFPPQ [AR_Y552_L548F] on FGFR1 (UniProt P11362)?
13.8

What measured phosphorylation enrichment is associated with CTTIHYTYMCN [TP53_Y234_N235T] on FGFR1 (UniProt P11362)?
0.724
